- System: Neuregulin-1 EGF-like domain
- PROTOCOL: binders of neuregulin-1 EGF-like domain, primary screen, biochemical, small-molecule microarray, 635 nm fluorescence (AID 1081);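 note: binding of the protein to compounds printed on small-molecule microarray slides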
- PROTOCOL CONDITIONS: small-molecule microarray binding, higher = more signal
Tick rule met if composite z-score is 0.5 or greater. Tick rule not met if composite z-score is less than 0.5.

MOLECULE: COCCOC(=O)N1C(=O)[C@@]2(c3cc(C#CCC(C(=O)OC)C(=O)OC)ccc31)[C@H](C(=O)N1CCN(c3ncccn3)CC1)[C@H]1C(=O)O[C@H](c3ccccc3)[C@H](c3ccccc3)N1[C@@H]2c1ccc(OCCO)cc1
ANSWER LABEL: rule met
--
MOLECULE: O=C1c2ccccc2[C@@]2(Cc3ccccc3N(Cc3ccccc3)C2=O)[C@H](c2ccc(CO)cc2)N1C1CCCCC1
ANSWER LABEL: rule met
--
MOLECULE: CCCCCCc1nc(CCCc2cc3c(c(CCCCCC)n2)[Si](C(C)C)(C(C)C)OC3)cc2c1[Si](C(C)C)(C(C)C)OC2
ANSWER LABEL: rule not met
--
MOLECULE: O=C1OCCC=C[C@H]2OC34C=CCN(Cc5ccccc5)C(=O)[C@H]3N(CCCO)C(=O)[C@@H]4C12 (stereo partly specified)
ANSWER LABEL: rule not met
--
MOLECULE: CO[C@H]1O[C@H](CO)[C@@H](OC(=O)Nc2ccc(Oc3ccccc3)cc2)[C@H](OC(=O)Nc2ccccc2)[C@H]1OC(=O)Nc1ccccc1
ANSWER LABEL: rule met
--
MOLECULE: COC(=O)[C@@]1(Cc2ccccc2)[C@H]2c3cc(C(=O)N4CCCC4)n(Cc4ccc(C)o4)c3C[C@H]2CN1C(=O)c1ccccc1
ANSWER LABEL: rule not met

====

- TEST SYSTEM: Neurogenic locus notch homolog protein 2 (Homo sapiens)
- PROTOCOL: Notch2 binders on small-molecule microarrays, primary screen, biochemical, small-molecule microarray, 635 nm fluorescence, stem cell growth factors (AID 1073)
- PROTOCOL CONDITIONS: Notch2 binding, higher = more signal

COMPOUND: COC(=O)c1ccc(C(O)C2C=CC3C(=O)N(c4ccccc4)C(=O)C3N2Nc2ccc(C#N)cc2)o1 (stereo not drawn)
composite z-score: 1.33
//
COMPOUND: CC(C)NC(=O)[C@@]1(Cc2ccccc2I)c2ccccc2C(=O)N(Cc2ccccc2)[C@H]1c1ccc(CO)cc1
composite z-score: 0.787
//
COMPOUND: CCOC(=O)C1=CCC(c2ccc(C#N)cc2)N(S(=O)(=O)c2ccc(C)cc2)C1 (stereo not drawn)
composite z-score: 1.67
//
COMPOUND: C=C[C@@H](COC(C)=O)N(Cc1ccc([N+](=O)[O-])cc1)S(=O)(=O)c1ccc(Br)cc1
composite z-score: 1.1
//
COMPOUND: CN(C)CCCCCCNC(=O)[C@H]1C[C@H]2C(=O)N[C@@H](CCCCN)C(=O)N2[C@H]1c1ccc(O)cc1
composite z-score: 1.27
//
COMPOUND: COCCOC(=O)N1C(=O)[C@@]2(c3ccccc31)[C@H](C(=O)NC[C@H](O)c1ccccc1)[C@H]1C(=O)O[C@H](c3ccccc3)[C@H](c3ccccc3)N1[C@@H]2c1ccc(OCCO)cc1
composite z-score: 1.38
//
COMPOUND: [N-]=[N+]=NCc1ccccc1C[C@@]1(C(=O)NCC(O)CO)N=C(c2ccc(OCCCO)cc2)O[C@@H]1c1ccccc1CN=[N+]=[N-] (stereo partly drawn)
composite z-score: 1.43
//
COMPOUND: COC(=O)c1ccc(C23CC2(C(NP(=O)(c2ccccc2)c2ccccc2)c2ccccc2)C3)cc1 (stereo not drawn)
composite z-score: 1.73

Origin of values: PubChem BioAssay
